experiment: Stability in human whole blood assessed as amidase-mediated carboxylic acid formation by measuring parent compound remaining measured after 1 hr; format: ADME, tissue-based
Overview of recorded Stability for various compounds
Answer in %, number only, no unit symbol.

COc1ccc2cc(C(=O)N[C@H]3CCNC3=O)cnc2c1 :: 100
COc1ccc2cc(C(=O)Nc3cn[nH]c3)cnc2c1 :: 63
COc1ccc2cc(C(=O)Nc3cc[nH]n3)cnc2c1 :: 93

Now for the compound whose Stability we want.
Qu. Quick check: Stability of "COc1ccc2cc(C(=O)NC(C)(C)C)cnc2c1" ?
Ans. 1

* * *

test: Volume of distribution at steady state in mouse; type: ADME, organism-based; conditions: in vivo, read-out: Vdss
Measured parameter: Vd (L/kg)
Numbers only; they are read as L/kg.

Qu. What does the record list as Vd for "CC(C)(O)[C@H]1CC[C@H](NC(=O)c2cnc3cc(OC(F)(F)F)ccc3c2)CC1" ?
Ans. 2.5

Origin of the recorded values: ChEMBL document CHEMBL4400569
